- Test description: CD spectroscopy, helicity
- Format: physicochemical
- Set-up: key: mean residue molar ellipticity, mdeg cm2/(dmol × res)
- Test settings: difference to PBS; bacterial membrane mimicking liposomes
Where no end group is shown, it is not given here.
Recorded endpoint: Δ[θ]222 induced by Liposomes
# answer = number (no unit)

Examples with their reported Δ[θ]222 induced by Liposomes follow.
Noted for Ac-KWAKKWAKWWKK-NH2 [6d] : its Δ[θ]222 induced by Liposomes reads -10810

Noted for RWLRRWLRWWR-NH2 [5d] : its Δ[θ]222 induced by Liposomes reads -1700

Noted for RWWRRAWAR-NH2 [3e] : its Δ[θ]222 induced by Liposomes reads -874

Noted for KWLKKWWKWWKK-NH2 [8e] : its Δ[θ]222 induced by Liposomes reads -9630

Noted for Ac-KWLKKWLKWWKK-NH2 [8d] : its Δ[θ]222 induced by Liposomes reads -14564

Noted for KWAKKWAKWWKK-NH2 [6b] : its Δ[θ]222 induced by Liposomes reads -12915

Noted for Ac-RWARRWARWWRR-NH2 [6c] : its Δ[θ]222 induced by Liposomes reads -9303

Noted for Ac-RWLRRWLRWWRR-NH2 [8c] : its Δ[θ]222 induced by Liposomes reads -11757

Others:
Noted for KWIKKWIKWWKK-NH2 [7b] : its Δ[θ]222 induced by Liposomes reads -9328

Noted for RAWRAWWRRA-NH2 [4f] : its Δ[θ]222 induced by Liposomes reads -805

Noted for RWIRRWIRWWRR-NH2 [7a] : its Δ[θ]222 induced by Liposomes reads -8836

Noted for RWWRRWAR-NH2 [2a] : its Δ[θ]222 induced by Liposomes reads -505

Noted for RWARRWARWWRR-NH2 [6a] : its Δ[θ]222 induced by Liposomes reads -6508

Noted for KWLKKWLKWWKK-NH2 [8b] : its Δ[θ]222 induced by Liposomes reads -12926

Noted for Ac-RWIRRWIRWWRR-NH2 [7c] : its Δ[θ]222 induced by Liposomes reads -16105

Noted for WRRWWRR-NH2 [1c] : its Δ[θ]222 induced by Liposomes reads -454
